Test system: Staphylococcus aureus (ATCC29213)
protocol_description: Microtitre plate assay, IC90 determination, STA 29213
Type: cell-based
measurement_conditions: Staphylococcus aureus ATCC29213; 90% inhibitory concentration for bacterial growth; resazurin; read-out: IC90 (μg/ml) STA 29213
What IC90 was measured for each of the following?
One number for each entry, in µg/mL.

Sample answers from the record:
>  <compound>
COc1nc2ccc(Br)cc2cc1C(/C(=C\CN(C)C)c1ccsc1)c1ccccc1 (stereo not shown)

>  <assay_system>
Staphylococcus aureus (ATCC29213)

>  <observation_type>
IC90

>  <measure_unit>
µg/mL

>  <result_number>
7.82

$$$$
>  <compound>
COc1ccc(/C(CCCCN2CCCCC2)=C(/c2ccc(Cl)cc2)c2cnc3ccccc3c2)cc1

>  <assay_system>
Staphylococcus aureus (ATCC29213)

>  <observation_type>
IC90

>  <measure_unit>
µg/mL

>  <result_number>
9.09

$$$$
>  <compound>
CCN(C)CCC/C=C(\CCc1ccccc1)C(c1ccccc1)c1cc2cc(Br)ccc2nc1OC (stereo not shown)

>  <assay_system>
Staphylococcus aureus (ATCC29213)

>  <observation_type>
IC90

>  <measure_unit>
µg/mL

>  <result_number>
1.76

$$$$

Alright, here's another compound for you.
Ask: Which IC90 reading was recorded for the compound COc1nc2ccc(Br)cc2cc1C(/C(=C/CCCN1CCCN(C)CC1)c1ccc2ccccc2c1)c1ccccc1 (stereo not shown) ?
Reply: 2.25
